Consider the following molecules and their measured TGI readings.
Test system: ACHN renal
Assay: NCI tumour cell line growth inhibition, 48 h

- molecule: "CS(=O)(=O)Nc1ccc(Nc2c3ccccc3nc3cc(Cl)ccc23)cc1"
  assay-system: "ACHN renal"
  TGI: "9.57 µM"
- molecule: "Cc1ccc(C)c(C(=O)CC2OC(O)C(Cl)C2Cl)c1 (configuration not stated)"
  assay-system: "ACHN renal"
  TGI: "> 100 µM"
- molecule: "NC1=NN(c2ccccc2)C(=O)C1/C(=N\\NC(=O)c1cc2ccccc2cc1O)C(=O)Nc1ccc(Cl)cc1 (configuration not stated)"
  assay-system: "ACHN renal"
  TGI: "> 100 µM"
- molecule: "Nc1ccc(N)c2c1C(=O)c1cccc([N+](=O)[O-])c1C2=O"
  assay-system: "ACHN renal"
  TGI: "> 100 µM"
- molecule: "CC1=C2[C@@H](c3ccccc3)C3C=CC2(C=C3C(F)(F)F)N(C(=O)NC2CCCCC2)C1=O (some centres not stated)"
  assay-system: "ACHN renal"
  TGI: "> 100 µM"
- molecule: "COC(=O)C1=C(C)N(NC(=O)Nc2ccccc2)C2(N)N(NC(=O)Nc3ccccc3)C(C)=C(C(=O)OC)C12C(=O)OC (configuration not stated)"
  assay-system: "ACHN renal"
  TGI: "> 100 µM"
- molecule: "COc1cc([C@H]2c3cc(O)c(OC)cc3C[C@]3(O)[C@@H]2CO[C@@H]3O)ccc1O"
  assay-system: "ACHN renal"
  TGI: "> 100 µM"
- molecule: "CN(C)c1ccc(/C=C2\\Cc3ccccc3C2=O)cc1Br"
  assay-system: "ACHN renal"
  TGI: "> 100 µM"
- molecule: "NS(=O)(=O)C1CCCCC1C(=O)NNC(=O)C(=O)Nc1nc(=S)[nH][nH]1 (configuration not stated)"
  assay-system: "ACHN renal"
  TGI: "> 100 µM"
- molecule: "O=c1cccccc1[O-].O=c1cccccc1[O-].O=c1cccccc1[O-].[Dy+3]"
  assay-system: "ACHN renal"
  TGI: "> 100 µM"
- molecule: "O=NNc1nc(-c2ccccn2)nc2ccccc12"
  assay-system: "ACHN renal"
  TGI: "42.5 µM"
- molecule: "O=C(COC(=O)[C@H](C[Se][Se]C[C@H](NC(=O)c1ccc(Br)cc1F)C(=O)OCC(=O)c1ccc(F)cc1)NC(=O)c1ccc(Br)cc1F)c1ccc(F)cc1"
  assay-system: "ACHN renal"
  TGI: "4.18 µM"
- molecule: "CCc1nc2cc(F)ccc2[nH]c1=O"
  assay-system: "ACHN renal"
  TGI: "> 100 µM"
- molecule: "CN1C/C(=C\\c2ccco2)c2nc(N)nc(-c3ccco3)c2C1"
  assay-system: "ACHN renal"
  TGI: "> 100 µM"
- molecule: "CC(=O)OC1C(C)OC(OC2C[C@](O)(C(C)=O)Cc3c(O)c4c(c(O)c32)C(=O)c2ccccc2C4=O)C(F)C1OC(C)=O (some centres not stated)"
  assay-system: "ACHN renal"
  TGI: "0.704 µM"
- molecule: "COc1cc2c(cc1OCCCN1CCN(CCCn3c4ccccc4c4ccccc43)CC1)N=C[C@@H]1CCCN1C2=O"
  assay-system: "ACHN renal"
  TGI: "1.27 µM"
- molecule: "CC(C)C12CCC3(CCC4C(C)(C(=O)O)CCCC4(C)C3C1)C(CN)C2 (configuration not stated)"
  assay-system: "ACHN renal"
  TGI: "> 100 µM"
- molecule: "Cc1ccc(S(=O)(=O)NCc2cccc([N+](=O)[O-])c2)cc1"
  assay-system: "ACHN renal"
  TGI: "> 100 µM"
- molecule: "CN1CCN(Cc2ccc(NC(=O)c3cncc(C#Cc4cnc5cccnn45)c3)cc2C(F)(F)F)CC1"
  assay-system: "ACHN renal"
  TGI: "4.9 µM"
- molecule: "CC(C)S1=C2C(=O)CC(C)(C)CC2=Nc2ccccc21 (configuration not stated)"
  assay-system: "ACHN renal"
  TGI: "> 100 µM"
- molecule: "CC(=O)OC/C=C/Cn1nc(Br)c(=O)[nH]c1=O"
  assay-system: "ACHN renal"
  TGI: "> 100 µM"
- molecule: "Nn1c(=S)[nH]nc(/C=C/c2c(O)ccc3ccccc23)c1=O"
  assay-system: "ACHN renal"
  TGI: "51.7 µM"
- molecule: "COc1cc(COC(=O)NC(Cc2cccs2)C(=O)O)c([N+](=O)[O-])cc1OC (configuration not stated)"
  assay-system: "ACHN renal"
  TGI: "> 100 µM"
- molecule: "CCN(CCCl)c1ccc(NC(=O)c2cc(C(=O)NCCN(C)C)cc(C(=O)Nc3ccc(N(CC)CCCl)cc3)c2)cc1"
  assay-system: "ACHN renal"
  TGI: "21.3 µM"
- molecule: "COc1ccc(-c2cc(-c3ccc(Nc4ccnc5cc(C(F)(F)F)ccc45)cc3)nc(N)c2C#N)c2ccccc12"
  assay-system: "ACHN renal"
  TGI: "> 100 µM"
- molecule: "O=C1C[C@@]23CCC4(CC2=CCC[C@H]3O1)OCCO4"
  assay-system: "ACHN renal"
  TGI: "> 100 µM"
- molecule: "COc1cc(/C=C/C(=O)c2c(-c3ccc(Cl)cc3)nc3sc(C)nn23)cc(OC)c1OC"
  assay-system: "ACHN renal"
  TGI: "> 100 µM"
- molecule: "COc1cccc2c(Nc3ccc(C(=O)NCCN4CCNCC4)cc3)cc(-c3ccccc3)nc12"
  assay-system: "ACHN renal"
  TGI: "40.8 µM"
- molecule: "COC(=O)CCSC(=O)Nc1ccccc1Cl"
  assay-system: "ACHN renal"
  TGI: "> 100 µM"
- molecule: "COc1ccc(S(=O)(=O)NCCCNc2nccc(-c3c(-c4ccc(F)cc4)nc4sccn34)n2)cc1"
  assay-system: "ACHN renal"
  TGI: "> 100 µM"
- molecule: "Cc1nc(-c2cccnc2)sc1C(=O)/C=C/c1ccc(Cl)cc1Cl"
  assay-system: "ACHN renal"
  TGI: "> 100 µM"
- molecule: "CCOP(=O)(OCC)/C(C#N)=C(\\C)c1ccco1"
  assay-system: "ACHN renal"
  TGI: "> 10 µM"
- molecule: "COC(=O)C1CCC(=S)N1C(C)=O (configuration not stated)"
  assay-system: "ACHN renal"
  TGI: "> 100 µM"
- molecule: "CCc1n[nH]c(=O)n1-c1ccncc1"
  assay-system: "ACHN renal"
  TGI: "> 100 µM"
- molecule: "OCCn1c(-c2ccncc2)c(-c2ccc(F)cc2)c2ncccc21"
  assay-system: "ACHN renal"
  TGI: "> 25 µM"
- molecule: "CCCCCCCCCCCCCCCC(=O)NCC(OCC)OCC"
  assay-system: "ACHN renal"
  TGI: "> 100 µM"
- molecule: "N=c1sc(N2CCOCC2)nn1CC(=O)c1ccccc1"
  assay-system: "ACHN renal"
  TGI: "> 100 µM"
- molecule: "Brc1ccc2c(c1)-c1ccccc1C1=NCCN12"
  assay-system: "ACHN renal"
  TGI: "12.4 µM"
- molecule: "COc1ccc2c(C=O)c3n(c(=O)c2c1OC)CCc1cc2c(cc1-3)OCO2"
  assay-system: "ACHN renal"
  TGI: "> 100 µM"
- molecule: "Nc1nc(N)c2ncn(Cc3ccccc3)c2n1"
  assay-system: "ACHN renal"
  TGI: "> 100 µM"
- molecule: "Cn1ncc2c(c1=O)Nc1ccccc1S2(=O)=O"
  assay-system: "ACHN renal"
  TGI: "> 100 µM"
- molecule: "N/N=C(\\N)SCc1ccc(N=C=S)cc1"
  assay-system: "ACHN renal"
  TGI: "> 100 µM"

---

System: SK-MEL-2 melanoma
Assay: NCI tumour cell line growth inhibition, 48 h
Consider the following molecules and their measured TGI readings.
quantity-measured: TGI

- molecule: "Clc1ccc(N=CNc2ccc(-c3nc4ccccc4[nH]3)cc2)cc1"
  observed-result: "> 100 µM"
- molecule: "Nc1nc(Nc2cc(F)c(Cl)c(F)c2)cc(=O)[nH]1"
  observed-result: "> 100 µM"
- molecule: "CCOC(=O)/C(=C/c1ccc[nH]1)P(=O)(OCC)OCC"
  observed-result: "> 100 µM"
- molecule: "Cc1cccc2c1Oc1ncccc1C2NC(=O)CN(C)C (stereo not given)"
  observed-result: "> 10 µM"
- molecule: "CCCCN1/C(=N/Nc2n[nH]c(=O)c3ccccc23)SCC1c1ccc(Cl)cc1 (stereo not given)"
  observed-result: "56.4 µM"
- molecule: "Nc1ccc(N)c2c1C(=O)c1cccc([N+](=O)[O-])c1C2=O"
  observed-result: "> 100 µM"
- molecule: "Cn1c(=O)c(-c2c(Cl)cccc2Cl)cc2cnc(Nc3ccc(N4CCOCC4)cc3)nc21"
  observed-result: "> 100 µM"
- molecule: "O=C1COc2cc3c(cc2N1)SCC(=O)N3"
  observed-result: "> 100 µM"
- molecule: "COC(=O)C1=C(C)C(=O)C2(CCCCCC2C(=O)OC)C1 (stereo not given)"
  observed-result: "> 100 µM"
- molecule: "Cc1c(-c2ccc(N3CCc4cccc(C(=O)Nc5nc6ccccc6s5)c4C3)nc2C(=O)O)cnn1CC12CC3CC(CC(C3)C1)C2"
  observed-result: "20.5 µM"
